measured-target: FGFR3 (V555M) (Homo sapiens, UniProt P22607, V555M)
Construct: made in house; host or cells: E. coli (BL21-derived), T7 phage
Sequence (P22607 23-806 V555M): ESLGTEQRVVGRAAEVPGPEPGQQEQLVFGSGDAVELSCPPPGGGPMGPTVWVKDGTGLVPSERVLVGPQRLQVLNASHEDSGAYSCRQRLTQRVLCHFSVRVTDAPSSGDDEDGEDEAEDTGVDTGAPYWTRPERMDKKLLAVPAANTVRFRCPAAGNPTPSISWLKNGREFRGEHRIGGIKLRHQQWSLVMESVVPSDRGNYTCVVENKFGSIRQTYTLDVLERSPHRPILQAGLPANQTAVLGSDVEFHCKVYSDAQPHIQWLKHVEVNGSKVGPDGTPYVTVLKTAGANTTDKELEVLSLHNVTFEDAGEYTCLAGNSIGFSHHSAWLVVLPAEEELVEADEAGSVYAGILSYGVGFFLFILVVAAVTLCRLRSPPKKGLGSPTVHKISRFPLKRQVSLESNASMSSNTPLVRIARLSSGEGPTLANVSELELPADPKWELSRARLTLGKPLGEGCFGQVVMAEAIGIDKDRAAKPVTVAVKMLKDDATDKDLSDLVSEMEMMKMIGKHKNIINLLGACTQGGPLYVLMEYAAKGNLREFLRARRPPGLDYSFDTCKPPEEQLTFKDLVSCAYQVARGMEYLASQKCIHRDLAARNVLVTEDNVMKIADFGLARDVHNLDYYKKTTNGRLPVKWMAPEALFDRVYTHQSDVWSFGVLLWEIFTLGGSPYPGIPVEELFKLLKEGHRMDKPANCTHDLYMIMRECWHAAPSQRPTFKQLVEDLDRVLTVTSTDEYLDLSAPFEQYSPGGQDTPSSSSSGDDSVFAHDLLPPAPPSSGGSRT
assay-info: Kinase binding assay (kinase-tagged T7 phage, affinity beads, qPCR), Kd
setup-conditions: V555M mutant; read-out: FGFR3 (V555M) (Kd nM)
test-readout: Kd

Below are worked cases with known answers.
{"compound": "C[C@@H](Oc1ccc2[nH]nc(-c3cnc(N4CC(C)(CN5CCOCC5)C4)c(F)c3)c2c1)c1c(Cl)cncc1Cl [Example 109]", "measured-target": "FGFR3 (V555M) (Homo sapiens, UniProt P22607, V555M)", "assay-value": "1 to 50 nM"}
{"compound": "COc1cc2[nH]nc(-c3cnc(N4CC5(CC5)C4)c(C#N)c3)c2cc1O[C@H](C)c1c(Cl)cncc1Cl [Example 3]", "measured-target": "FGFR3 (V555M) (Homo sapiens, UniProt P22607, V555M)", "assay-value": "1 to 50 nM"}
{"compound": "C[C@@H](Oc1ccc2[nH]nc(-c3cnc(N4CC(C)(NCCO)C4)c(C#N)c3)c2c1)c1c(Cl)cncc1Cl [Example 52]", "measured-target": "FGFR3 (V555M) (Homo sapiens, UniProt P22607, V555M)", "assay-value": "1 to 50 nM"}
{"compound": "C[C@@H](Oc1ccc2[nH]nc(-c3cnc(N4CC(C)(NC(=O)CN(C)C)C4)c(C#N)c3)c2c1)c1c(Cl)cncc1Cl [Example 87]", "measured-target": "FGFR3 (V555M) (Homo sapiens, UniProt P22607, V555M)", "assay-value": "1 to 50 nM"}
{"compound": "Cc1ncc(Cl)c([C@@H](C)Oc2ccc3[nH]nc(-c4cnc(N5CC(C)(OC6CCC6)C5)c(C#N)c4)c3c2)c1Cl [Example 46]", "measured-target": "FGFR3 (V555M) (Homo sapiens, UniProt P22607, V555M)", "assay-value": "50 to 300 nM"}

Query: Name the recorded Kd for C=CCNC1(C)CN(c2ncc(-c3n[nH]c4cc(OC)c(O[C@H](C)c5c(Cl)cncc5Cl)cc34)cc2C#N)C1 [Example 147] .
Response: 1 to 50 nM

Query: Name the recorded Kd for CCNC1(C)CN(c2ncc(-c3n[nH]c4ccc(O[C@H](C)c5c(Cl)cncc5Cl)cc34)cc2C#N)C1 [Example 35] .
Response: 1 to 50 nM

Query: Name the recorded Kd for C=CCNC1(C)CN(c2ncc(-c3n[nH]c4ccc(O[C@H](C)c5c(Cl)cncc5Cl)cc34)cn2)C1 [Example 234] .
Response: 1 to 50 nM

Query: Name the recorded Kd for C[C@@H](Oc1ccc2[nH]nc(-c3ccc(N4CC(C)(CP(C)(C)=O)C4)nc3)c2c1F)c1c(Cl)cncc1Cl [Example 187] .
Response: 50 to 300 nM

Query: Name the recorded Kd for COc1cc2[nH]nc(-c3cnc(N4CC(C)(NC(C)C)C4)c(C#N)c3)c2cc1O[C@H](C)c1c(Cl)cncc1Cl [Example 8] .
Response: 1 to 50 nM

Query: Name the recorded Kd for C[C@@H](Oc1ccc2[nH]nc(-c3cnc(N4CC(C)(O)C4)c(F)c3)c2c1)c1c(Cl)cncc1Cl [Example 154] .
Response: 1 to 50 nM
